READOUT_NAME: melting point

The examples below pair each entry with its known result.
Cc1ccc(-c2cnn(-c3ccc(C)cc3)n2)cc1: 98 to 99 °C
CCc1cccc(C)c1CNc1cc(C(=O)O)cn2c(C)nnc12: 328 °C
CC1(C)NC(=O)c2cc(C#N)ccc2O1: 127 to 129 °C
CCCCc1nc(Cl)c(C(=O)N2CCCC2)n1Cc1ccc2oc(-c3ccccc3-c3nnn[nH]3)c(Br)c2c1: 120 to 122 °C
O=C(Cl)C=Cc1cccc([N+](=O)[O-])c1: 81 to 83.5 °C

Incoming: Look up melting point: CC(=O)Oc1c(C)cc(C2C(=O)Oc3c2cc(C(C)(C)C)cc3C(C)(C)C)cc1C (stereo not given)
Outgoing: 165 to 166 °C

Incoming: Fill in: melting point of O=[N+]([O-])c1cccc(OCc2ccccc2)c1[N+](=O)[O-] is ___
Outgoing: 100 to 101 °C

Incoming: // melting point lookup, key: CN(C)c1ccc([N+](=O)[O-])cc1Cl
Outgoing: 71 to 73 °C

Incoming: Find the recorded melting point belonging to O=C(O)Cc1cc(=O)n(Cc2ccc(Cl)cc2)c2ccc([N+](=O)[O-])cc12 and report it.
Outgoing: 217 to 219 °C

Incoming: Find the recorded melting point belonging to O=c1[nH]c2ncc(-c3ccc(-c4cc[nH]n4)cc3)nc2n1CC1CCCCC1 and report it.
Outgoing: 292 to 294 °C

----------
Measured melting point, listed per entry.

Incoming: Given C[C@H](OCc1cc2cc(Cl)ccc2n1S(=O)(=O)c1ccc2ncsc2c1)C(=O)O , state its recorded melting point.
Outgoing: 82 °C

Incoming: Would you kindly share the measured melting point for CCCCc1nc2c(N)nc3c(c2n1CCCCN)CCCC3 ?
Outgoing: 63 to 67 °C

----------
Recorded melting point values for a group of compounds are listed next.

Please review the following examples before continuing.
COc1ccc2c(c1OC)C1=NCCN1C1C(c3ccccc3)CCN21 (configuration not stated): 171 °C
Cc1cc(Br)cnc1NCCCNC1=NS(=O)N=C1N (configuration not stated): 204 to 205 °C
COC(=O)c1ccc(/C=C/c2nc(-c3ccccc3)oc2C)cc1: 164 to 165 °C
CCNC1(C(N)=O)C=C2C(=Nc3ccccc32)C=N1 (configuration not stated): 233 to 236 °C
CC(C)(O)Cn1cnc2c(N)nc3cc(CCS(C)(=O)=O)ccc3c21: 269 to 271 °C
CN1CCCc2ccc(NC(=O)c3cc4cc(F)ccc4n3Cc3cccc(F)c3)cc21: 159 to 160 °C

Incoming: Look up melting point for this compound: CCCCc1c[nH]c2cccc(SC)c2c1=O
Outgoing: 144 °C

----------
// reported melting point for each item listed

Some solved entries appear below for comparison.
O[C@H]1CC[C@H](n2cnc(-c3ccc(F)cc3)c2-c2ccnc(Oc3ccccc3)n2)CC1: 212 to 215 °C
COc1cc(CC(=O)O)cc2c1C(=O)c1ccccc1CC2: 189 to 199 °C
COc1ccc2c(c1)c(-c1ccccc1)nc(=S)n2CC1CC1: 180 to 181 °C
COC1=NC(C)=C(C(=O)OC(C)C)C(c2cccc([N+](=O)[O-])c2)N1C(=O)N(C)Cc1ccccc1 (stereo not given): 145 to 146 °C
CN(C)C(C)(C)c1ccc(-c2nc(Nc3ccc(F)cc3)ncc2C#N)cc1: 179 °C
CC(C)(C)OC(=O)N1CCC[C@H]1COc1cccc2[nH]ncc12: 125 °C
Cc1ccc(C)c(Cn2[nH]c(N)cc2=O)c1: 124 °C
Cn1cccc1CCN1C(=O)NCc2c(-c3ccccc3)cccc21: 158 to 161 °C
O=C1C2=NCCCN2c2cc(Cl)c([N+](=O)[O-])cc21: 152 to 165 °C
CC(=O)O[C@H]1C=C(Br)[C@H](O)[C@@H](Br)[C@@H]1O: 150 to 152 °C

Incoming: Would you mind telling me what melting point value was observed for Cn1c(=O)c(Oc2ccccc2F)cc2cnc(N)nc21 ?
Outgoing: 241 to 243 °C

Incoming: Which melting point reading was recorded for the compound O=C(O)c1cc2cc(Cl)ccc2nc1N[C@@H](Cc1ccc(OCc2ccccc2)cc1)C(=O)O ?
Outgoing: 169 to 171 °C

Incoming: Requested field: melting point. Item: NS(=O)(=O)c1cc(C(=O)c2csc3ccccc23)ccc1Cl
Outgoing: 154 to 156 °C

Incoming: If you can, please state the reported melting point value of COC(=O)c1cc(OC)c(OCc2ccccc2)c(OC)c1 .
Outgoing: 62 to 65 °C

Incoming: Would you kindly share the measured melting point for COCc1cnc2c(NC(=O)c3c(Cl)cccc3Cl)cccc2c1CCl ?
Outgoing: 164 °C

Incoming: Sample CCCCOc1ccc(-n2cc(C(=O)O)cn2)cc1C#N — what was its melting point?
Outgoing: 200 to 202 °C

Incoming: What measured melting point goes with O=C(O)CCCCCCCn1cnc(-c2ccccc2)c1-c1ccccc1 ?
Outgoing: 130 °C

Incoming: What measured melting point goes with CCOC(=O)Cc1nnc(-c2ccc(OC)cc2)n1-c1ccccc1 ?
Outgoing: 130 to 131 °C

Incoming: What melting point value was documented for this compound, COC(=O)c1oc2ccc(Cl)cc2c1-c1ccccc1C ?
Outgoing: 212 to 214 °C

Incoming: Fill in: melting point of Cc1ccccc1-c1nccc2c(CC(=O)O)cccc12 is ___
Outgoing: 192 °C

Incoming: Can you share its melting point? I mean this compound: CC(=O)OC1CSC(Oc2cc(Br)cnc2F)C(OC(C)=O)C1OC(C)=O (stereo not given)
Outgoing: 120 to 122 °C

Incoming: Tell me the measured melting point of NC(=O)c1cccc2c1c1c(OCC(=O)O)ccc(Cl)c1n2Cc1ccccc1 , please.
Outgoing: 240 to 242 °C

Incoming: Dear colleague, I am looking for the recorded melting point of the following compound: O=S(CCC=C(F)F)NCc1ccc(Cl)cc1 (stereo not given)
Outgoing: 37 to 38 °C

Incoming: Return reported melting point; argument: Cc1cccc(OCCCN2CCC(C(O)(c3ccc(F)cc3)c3ccc(F)cc3)CC2)c1
Outgoing: 112 to 114 °C

Incoming: Reported melting point for O=C(OC1COC(n2cc(CCN3C(=O)c4ccccc4C3=O)c(=O)[nH]c2=O)C(OC(=O)c2ccccc2)C1OC(=O)c1ccccc1)c1ccccc1 (stereo not given) : what is it?
Outgoing: 124 °C

Incoming: Bench note: what melting point did COC(=O)c1cccc([N+](=O)[O-])c1NC(=O)OC(C)(C)C show?
Outgoing: 92 to 94 °C

----------
// values below are reported melting point

Field: example entries. Status: answers known.
NS(=O)(=O)c1cccc(C(=O)CCl)c1: 118 °C
CC(C)(C)c1cc(=O)n(-c2c(Cl)cc(C(F)(F)F)cc2Cl)[nH]1: 175 °C
CNN(NC)C(=O)Nc1cccc2c1C(=O)c1c-2n[nH]c1C(C)C: 231 to 233 °C
Cn1cc(C(=S)NCc2ccc(Cl)cc2)c(=O)c2cc(C#CCO)ccc21: 200 to 201 °C
O=C(OCOC(=O)c1ccccc1)Oc1ccc([N+](=O)[O-])cc1: 69 to 71 °C

Incoming: GET /values?readout=melting point&item= Cc1sc(-c2ccccc2)nc1COc1ccc(COc2ncccc2CO)cc1
Outgoing: 111 to 112 °C

Incoming: Quick one: melting point for O=C(N1CCN(Cc2ccccc2)CC1)N1CC(Oc2ccc(Br)cc2)C1 ?
Outgoing: 133 to 135 °C

Incoming: Return reported melting point; argument: O=C(O)COc1ccc2cc(-c3csc(Cc4c(Cl)cccc4Cl)n3)ccc2c1
Outgoing: 205 to 207 °C

Incoming: Recorded melting point for NC(=O)N(O)CC(=O)Nc1cccc(OCc2ccccc2)c1 , please?
Outgoing: 177 to 178 °C

Incoming: I am curious: what melting point value has been reported for CC(N)=NS(=O)(=O)C=Cc1c(Cl)cccc1Cl ?
Outgoing: 154 to 158 °C

Incoming: # input compound: OC1CCc2cc(Cl)c(Cl)cc2C1 (stereo not given) ; wanted: its melting point
Outgoing: 103 to 105 °C

Incoming: Could you share which melting point value was measured for N#CCCN(N)c1nc2cccc(Cl)c2o1 ?
Outgoing: 114 to 115 °C

Incoming: Need melting point, item Cc1ccc(-c2csc3nc(C)c(CCCl)c(=O)n23)cc1
Outgoing: 152 to 165 °C

Incoming: I'd like to know its melting point. The compound in question is N=C(N)SCCc1ccc(Cl)c(Cl)c1
Outgoing: 135 to 139 °C

----------
// reported melting point per item

The examples below pair each entry with its known result.
CN1Cc2c(-c3noc(C4CC4)n3)ncn2-c2cccc(Cl)c2C1=O: 165 to 169 °C
S=C(Nc1ccccc1)N(Cc1ccc(Cl)cc1)C1CCCC1: 129 to 132 °C
CCOc1cc2c(O)cc(C)nc2nc1C: 281 to 284 °C
CC(=O)Nc1ccc(-c2cc(C(=O)c3cccnc3)sc2N2CCOCC2)cc1: 144 °C
O=C(Nc1ccc(-c2nc(-c3ccco3)no2)c(Cl)c1)Oc1ccccc1: 184 to 186 °C

Incoming: Form field: reported melting point of CC(C)c1c(C(=O)Nc2ccccc2)c(-c2ccc(F)cc2)cn1-c1ccccc1
Outgoing: 192 to 194 °C

Incoming: Param item = COc1c(Cc2c[nH]c3cccc(C(=O)O)c23)[nH]c(=O)c(CC(C)C)[n+]1[O-] ; retrieve measured melting point.
Outgoing: 160 to 164 °C

Incoming: Given the compound CCCCCCCNC(=O)Nc1ccccc1C(=O)NCCn1cnc(-c2ccccc2)c1-c1ccccc1 , what is its reported melting point?
Outgoing: 170 °C

Incoming: Entry CCCCOC(=O)NC(=O)C1c2ccccc2Oc2ccccc21 : reported melting point = ?
Outgoing: 180 to 183 °C
